- Subject of test: TBK1 (Homo sapiens (Human))
- Run description: TR-FRET kinase assay, TBK1
- Condition info: read-out: TBK1-IC50; full length recombinant TBK1 2.5 nM, 2x Km ATP, 1 μM peptide, 240 min at 25° C.; geometric mean of minimum four determinations
Observed property: IC50 (nM)
Provide only the numeric value, understood in nM.

These solved cases illustrate the format of a correct answer.
N#Cc1cc(-c2ncnc3[nH]c(-c4ccc(Cl)cc4)cc23)ccc1OC1CCN(C(=O)CO)CC1 [Example 127] = 4.64
Cn1cc(-c2cc3c(-c4ccc(OC5CCOCC5)c(C#N)c4)ccnc3[nH]2)cn1 [Example 84] = 3.68
N#Cc1cc(-c2ccnc3[nH]c(-c4ccc(C(=O)C(F)(F)F)cc4)cc23)ccc1OC1CCOCC1 [Example 237] = 11.4
N#Cc1cc(-c2ncnc3[nH]c(-c4ccc(N5CCOCC5)cc4)nc23)ccc1O[C@@H]1CCNC1 [Example 207] = 15.8
Cc1cc(N2CCOCC2)ccc1-c1cc2c(-c3ccc(OC4CCOCC4)c(C#N)c3)ccnc2[nH]1 [Example 124] = 5.9

Shift focus to the following entry.
Form field: reported IC50 of COc1cc(-c2cc3c(-c4ccc(OC5CCOCC5)c(C#N)c4)c(F)cnc3[nH]2)ccc1N1CCOCC1 [Example 172] 30.2

###

- Subject of test: IKKε (Homo sapiens (Human))
- Sequence (Q14164 whole entry): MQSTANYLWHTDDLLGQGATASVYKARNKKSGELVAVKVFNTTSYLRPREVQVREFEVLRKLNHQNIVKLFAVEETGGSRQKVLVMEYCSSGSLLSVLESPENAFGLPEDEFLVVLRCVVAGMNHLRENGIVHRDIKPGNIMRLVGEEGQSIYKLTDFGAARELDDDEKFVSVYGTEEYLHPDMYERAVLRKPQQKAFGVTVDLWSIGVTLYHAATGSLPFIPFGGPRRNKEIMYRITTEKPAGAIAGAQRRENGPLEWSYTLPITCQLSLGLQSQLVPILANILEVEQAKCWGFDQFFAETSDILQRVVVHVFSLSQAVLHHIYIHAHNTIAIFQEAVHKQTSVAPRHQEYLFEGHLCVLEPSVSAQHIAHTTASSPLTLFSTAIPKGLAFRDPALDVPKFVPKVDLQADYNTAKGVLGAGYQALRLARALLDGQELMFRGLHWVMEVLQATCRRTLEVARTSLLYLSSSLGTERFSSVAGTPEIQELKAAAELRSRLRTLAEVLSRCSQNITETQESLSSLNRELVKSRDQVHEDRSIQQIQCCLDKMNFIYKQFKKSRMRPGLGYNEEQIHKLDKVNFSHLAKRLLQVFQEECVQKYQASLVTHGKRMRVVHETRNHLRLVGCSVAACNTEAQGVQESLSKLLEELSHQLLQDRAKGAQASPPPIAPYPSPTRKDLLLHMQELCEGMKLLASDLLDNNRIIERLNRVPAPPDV
- Run description: TR-FRET kinase assay, IKKε
- Condition info: full length recombinant IKKε 0.3 nM, 2x Km ATP, 1 μM peptide, 240 min at 25° C.; geometric mean of minimum four determinations
// reported IC50 for each item listed
Provide only the numeric value, understood in µM.

These solved cases illustrate the format of a correct answer.
CN(C)Cc1ccc(-c2nc3c(-c4ccc(OC5CCN(C(=O)C(F)F)CC5)c(C#N)c4)ncnc3[nH]2)cc1 = 1
CC(=O)N1CC(Oc2ccc(-c3ccnc4[nH]c(-c5ccc(N6CCOCC6)cc5)cc34)cc2C#N)C1 = 0.195

Shift focus to the following entry.
Value wanted: IC50 (IKKε (Homo sapiens (Human))) of entry N#Cc1cc(-c2ncnc3[nH]c(-c4ccc(N5CCOCC5)cc4)nc23)ccc1O[C@@H]1CCN(C(=O)CO)C1 0.00758

###

- Subject of test: IKKε (Homo sapiens (Human))
- Run description: TR-FRET kinase assay, IKKε
- Condition info: full length recombinant IKKε 0.3 nM, 2x Km ATP, 1 μM peptide, 240 min at 25° C.; geometric mean of minimum four determinations
// reported pIC50 for each item listed
// pIC50 is dimensionless: -log10 of concentration (M)

These solved cases illustrate the format of a correct answer.
COc1cc(-c2cc3c(-c4ccc(N5CC[C@@H](O)C5)c(C#N)c4)ncnc3[nH]2)ccc1N1CCN(C2COC2)CC1 [Example 142] = 7.83
N#Cc1cc(-c2ccnc3[nH]c(-c4ccc(N5CCOCC5)cc4)nc23)ccc1OC1CCOCC1 [Example 305] = 7.97

Shift focus to the following entry.
Value wanted: pIC50 (IKKε (Homo sapiens (Human))) of entry N#Cc1cc(-c2ccnc3[nH]c(-c4ccc(N5CCOCC5)cc4)nc23)ccc1O[C@@H]1CCNC1 [Example 195] 7.21

###

- Subject of test: IKKε (Homo sapiens (Human))
- Run description: TR-FRET kinase assay, IKKε
- Condition info: full length recombinant IKKε 0.3 nM, 2x Km ATP, 1 μM peptide, 240 min at 25° C.; geometric mean of minimum four determinations
- Excerpt: Biological Assay for TBK1 and IKKs:
// reported IC50 for each item listed
Provide only the numeric value, understood in nM.

N#Cc1cc(-c2ncnc3[nH]c(-c4ccc(N5CCOCC5)cc4)cc23)ccc1CN1CCCC1=O [Example 115] = 1000
N#Cc1cc(-c2ccnc3[nH]c(-c4ccc(N5CCOCC5)cc4)cc23)ccc1O[C@@H]1CCNC1 [Example 14] = 20.8
N#Cc1cc(-c2ccnc3[nH]c(-c4ccc(N5CCOCC5)cc4)cc23)ccc1OC1CCN(C(=O)CN)CC1 [Example 152] = 18.4
N#Cc1cc(-c2ncnc3[nH]c(-c4cccc(Cn5ccnc5)c4)cc23)ccc1OC1CCOCC1 [Example 119] = 1.22

Shift focus to the following entry.
Form field: reported IC50 of N#Cc1cc(-c2ccnc3[nH]c(-c4ccc(N5CCOCC5)cc4)cc23)ccc1O[C@@H]1CCN(C(=O)CO)C1 [Example 15] 2.45

###

// reported IC50 for each item listed
- Subject of test: TBK1 (Homo sapiens (Human))
- Run description: TR-FRET kinase assay, TBK1
- Condition info: read-out: TBK1-IC50; full length recombinant TBK1 2.5 nM, 2x Km ATP, 1 μM peptide, 240 min at 25° C.; geometric mean of minimum four determinations
Provide only the numeric value, understood in nM.

These solved cases illustrate the format of a correct answer.
CC(C)(O)c1cccc(-c2cc3c(-c4ccc(OC5CCOCC5)c(C#N)c4)ccnc3[nH]2)c1 = 10.6
N#Cc1cc(-c2ncnc3[nH]c(-c4ccc(C(=O)N5CCOCC5)cc4)cc23)ccc1OC1CCN(C(=O)CO)CC1 = 1.32
N#Cc1cc(-c2ccnc3[nH]c(-c4ccc5c(c4)C(=O)NC5)cc23)ccc1OC1CCOCC1 = 9.62

Form field: reported IC50 of O=C1NCc2cc(-c3ncnc4[nH]c(-c5ccc(N6CCOCC6)cc5)cc34)ccc21 1000

Form field: reported IC50 of COC(C)(C)c1ccc(-c2cc3c(-c4cc(C#N)c(OC5CCOCC5)cn4)ccnc3[nH]2)cc1 4.8

###

- Subject of test: TBK1 (Homo sapiens (Human), UniProt Q9UHD2)
- Sequence (Q9UHD2 whole entry): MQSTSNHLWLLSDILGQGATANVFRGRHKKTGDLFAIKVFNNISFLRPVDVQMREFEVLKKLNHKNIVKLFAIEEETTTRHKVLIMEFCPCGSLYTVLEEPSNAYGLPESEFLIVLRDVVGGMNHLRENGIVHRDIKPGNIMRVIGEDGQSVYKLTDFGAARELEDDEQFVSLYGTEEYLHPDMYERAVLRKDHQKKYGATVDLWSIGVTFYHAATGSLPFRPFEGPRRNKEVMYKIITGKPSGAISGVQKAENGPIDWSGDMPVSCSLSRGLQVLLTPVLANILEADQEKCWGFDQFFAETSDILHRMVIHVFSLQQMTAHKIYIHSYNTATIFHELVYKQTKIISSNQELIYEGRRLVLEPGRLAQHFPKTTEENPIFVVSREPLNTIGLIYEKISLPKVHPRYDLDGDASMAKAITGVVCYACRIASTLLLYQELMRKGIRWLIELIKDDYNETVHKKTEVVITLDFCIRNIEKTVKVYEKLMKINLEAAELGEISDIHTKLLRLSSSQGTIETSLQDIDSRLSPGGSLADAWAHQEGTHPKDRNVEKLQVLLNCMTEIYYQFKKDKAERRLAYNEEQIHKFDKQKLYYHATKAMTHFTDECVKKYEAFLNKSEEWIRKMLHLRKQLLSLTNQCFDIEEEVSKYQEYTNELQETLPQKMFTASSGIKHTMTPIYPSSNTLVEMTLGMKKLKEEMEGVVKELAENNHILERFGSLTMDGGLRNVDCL
- Run description: TR-FRET kinase assay, TBK1
- Condition info: read-out: TBK1-IC50; full length recombinant TBK1 2.5 nM, 2x Km ATP, 1 μM peptide, 240 min at 25° C.; geometric mean of minimum four determinations
Observed property: pIC50
// pIC50 is dimensionless: -log10 of concentration (M)

These solved cases illustrate the format of a correct answer.
N#Cc1cc(-c2ccnc3[nH]c(C(=O)N4CCCC4)cc23)ccc1OC1CCOCC1 = 6.42
N#Cc1cc(-c2ncnc3[nH]c(-c4ccc(N5CCOCC5)c(F)c4)nc23)ccc1OC1CCN(C(=O)CO)CC1 = 8.89
CC(C)(O)c1ccc(-c2cc3c(-c4ccc(OC5CCOCC5)c(C#N)c4)c(F)cnc3[nH]2)cc1 = 7.81
N#Cc1cc(-c2ncnc3[nH]c(-c4ccc(N5CCOCC5)cc4)cc23)ccc1N1CC(O)C1 = 8.67
N#Cc1cc(-c2ncnc3[nH]c(-c4ccc(N5CCOCC5)cc4)cc23)ccc1OC1CCS(=O)(=O)CC1 = 8.42
C[C@@H](O)C(=O)N1CC[C@@H](Oc2ccc(-c3ncnc4[nH]c(-c5ccc(N6CCOCC6)cc5)nc34)cc2C#N)C1 = 7.88

Form field: reported pIC50 of CC(C)(O)c1ccc(-c2cc3c(-c4ccc(OC5CCN(C(=O)CO)CC5)c(C#N)c4)ncnc3[nH]2)cn1 8.49

Form field: reported pIC50 of N#Cc1cc(-c2ccnc3[nH]c(-c4cnn(C5CCNCC5)c4)cc23)ccc1OC1CCOCC1 8.91

Form field: reported pIC50 of N#Cc1cc(-c2ccnc3[nH]c(-c4ccc(N5CCOCC5)cc4)cc23)ccc1OC1CCNCC1 7.77

Form field: reported pIC50 of N#Cc1cc(-c2ccnc3[nH]c(-c4ccc(N5CCOCC5)cc4)cc23)ccc1OC1CCCOC1 (stereo not shown) 7.35

Form field: reported pIC50 of N#Cc1cc(-c2ccnc3[nH]c(-c4ccc(N5CCOCC5)nc4)cc23)ccc1OC1CCOCC1 8.39

Form field: reported pIC50 of N#Cc1cc(-c2ncnc3[nH]c(-c4ccc(N5CCOCC5)cc4)cc23)ccc1CN1CCOCC1 7.71

Form field: reported pIC50 of N#Cc1cccc(-c2ccnc3[nH]c(-c4ccc(N5CCOCC5)cc4)cc23)c1 7.55

Form field: reported pIC50 of CS(=O)(=O)N1CCN(c2ccc(-c3cc4c(-c5ccc(OC6CCOCC6)c(C#N)c5)ncnc4[nH]3)cc2)CC1 8.85

Form field: reported pIC50 of N#Cc1cc(-c2ccnc3[nH]c(-c4cccc(CN5CCOCC5)c4)cc23)ccc1OC1CCOCC1 7.99

Form field: reported pIC50 of COc1cc(-c2cc3c(-c4ccc(N5CC[C@@H](O)C5)c(C#N)c4)ncnc3[nH]2)ccc1N1CCN(C2COC2)CC1 8.69

Form field: reported pIC50 of N#Cc1cc(-c2cc3c(-c4ccc(N5CC(O)C5)c(C#N)c4)ncnc3[nH]2)ccc1N1CC(O)C1 7.87

Form field: reported pIC50 of CC(C)(O)c1ccc(-c2cc3c(-c4cc(C#N)c(OC5CCOCC5)cn4)ccnc3[nH]2)cc1 8.42

###

- Subject of test: IKKε (Homo sapiens (Human))
- Run description: TR-FRET kinase assay, IKKε
- Condition info: full length recombinant IKKε 0.3 nM, 2x Km ATP, 1 μM peptide, 240 min at 25° C.; geometric mean of minimum four determinations
pIC50: −log10 of the molar value.
// reported pIC50 for each item listed

Form field: reported pIC50 of C[C@H](O)C(=O)N1CC[C@@H](Oc2ccc(-c3ncnc4[nH]c(-c5ccc(N6CCOCC6)cc5)nc34)cc2C#N)C1 [Example 210] < 6.06

These measurements were taken from patent US10072001B2.
